Target: T1, human CD3 (human, UniProt P07766 23-207; P09693 23-182; P04234 22-171; P20963 22-164)
T1 construct: whole, on cells; SP34 is described as an anti-human CD3e antibody; also called human TCR/CD3 complex; CD3 on human pan-T cells
T1 sequence (P07766 23-207, chain 1 of 4): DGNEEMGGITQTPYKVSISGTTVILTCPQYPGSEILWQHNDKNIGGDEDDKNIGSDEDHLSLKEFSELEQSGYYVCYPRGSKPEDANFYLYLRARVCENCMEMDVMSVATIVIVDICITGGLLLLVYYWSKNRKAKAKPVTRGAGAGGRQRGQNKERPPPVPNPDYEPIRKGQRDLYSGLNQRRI
T1 sequence (P09693 23-182, chain 2 of 4): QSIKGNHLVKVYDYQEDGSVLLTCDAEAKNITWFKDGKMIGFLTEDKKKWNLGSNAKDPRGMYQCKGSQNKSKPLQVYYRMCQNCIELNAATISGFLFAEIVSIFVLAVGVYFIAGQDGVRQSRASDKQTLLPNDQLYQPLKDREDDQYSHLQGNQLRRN
T1 sequence (P04234 22-171, chain 3 of 4): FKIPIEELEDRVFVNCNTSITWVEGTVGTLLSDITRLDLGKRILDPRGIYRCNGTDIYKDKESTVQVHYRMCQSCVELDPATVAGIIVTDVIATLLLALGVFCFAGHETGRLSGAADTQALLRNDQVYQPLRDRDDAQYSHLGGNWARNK
T1 sequence (P20963 22-164, chain 4 of 4): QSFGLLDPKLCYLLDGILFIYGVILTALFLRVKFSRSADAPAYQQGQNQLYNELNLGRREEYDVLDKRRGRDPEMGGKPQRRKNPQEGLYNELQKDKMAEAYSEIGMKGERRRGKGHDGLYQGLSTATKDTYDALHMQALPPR
Test: flow cytometry on human pan-T cells; MFI at 7.4 or 10 µg/ml relative to PR000260

{"columns": ["BINDER", "binding result"],
 "data": [
  ["PR001849 (antibody, human IgG1, lambda, L234A L235A, V domains shown, humanized SP34 variant, IgG1 LALAPG; also called VH3732/VL7461 IgG) VH: EVQLVESGGGLVQPGGSLKLSCAASGFTFSTYAMNWVRQASGKGLEWVGRIRSKYNNYATYYADSVKDRFTISRDDSKSTLYLQMNSLKTEDTAVYYCVRHGNFGNSYVSWFAYWGQGTLVTVSS VL: QAVVTQEPSLTVSPGGTVTLTCRSSTGAVTTSNYANWVQQKPGQAPRGLIGGTNKRAPWTPARFSGSLLGDKAALTLLGAQPEDEAEYFCALWYSNLWVFGGGTKLTVLG", "binds"],
  ["PR004616 (antibody, human IgG1, lambda, L234A L235A, V domains shown, humanized SP34 variant, IgG1 LALA; also called VH3233/VL7461 IgG) VH: EVQLLESGGGLVQPGGSLRLSCAASGFTFSTYAMNWVRQAPGKGLEWVSRIRSKYNNYATYYADSVKDRFTISRDNSKNTLYLQMNSLRAEDTAVYYCAKHGNFGNSYVSWFAYWGQGTLVTVSS VL: QAVVTQEPSLTVSPGGTVTLTCRSSTGAVTTSNYANWVQQKPGQAPRGLIGGTNKRAPWTPARFSGSLLGDKAALTLLGAQPEDEAEYFCALWYSNLWVFGGGTKLTVLG", "binds"],
  ["PR002837 (antibody, human IgG1, lambda, L234A L235A, V domains shown, humanized SP34 variant, IgG1 LALAPG; also called VH3734/VL7461 IgG) VH: EVQLVESGGGLVQPGGSLKLSCAASGFTFSTYAMNWVRQASGKGLEWVGRIRSKYNNYATYYADSVKDRFTISRDDSKNTAYLQMNSLKTEDTAVYYCVRHGNFGNSYVSWFAYWGQGTLVTVSS VL: QAVVTQEPSLTVSPGGTVTLTCRSSTGAVTTSNYANWVQQKPGQAPRGLIGGTNKRAPWTPARFSGSLLGDKAALTLLGAQPEDEAEYFCALWYSNLWVFGGGTKLTVLG", "binds"],
  ["PR002835 (antibody, human IgG1, lambda, L234A L235A, V domains shown, humanized SP34 variant, IgG1 LALAPG; also called VH3236/VL7461 IgG) VH: EVQLLESGGGLVQPGGSLRLSCAASGFTFSTYAMNWVRQAPGKGLEWVSRIRSKYNNYATYYADSVKDRFTISRDNSKSTLYLQMNSLRAEDTAVYYCARHGNFGNSYVSWFAYWGQGTLVTVSS VL: QAVVTQEPSLTVSPGGTVTLTCRSSTGAVTTSNYANWVQQKPGQAPRGLIGGTNKRAPWTPARFSGSLLGDKAALTLLGAQPEDEAEYFCALWYSNLWVFGGGTKLTVLG", "binds"],
  ["PR000512 (antibody, human IgG1, lambda, L234A L235A, V domains shown, humanized SP34 variant, IgG1 LALA; also called VH3731/VL7461 IgG) VH: EVQLVESGGGLVQPGGSLKLSCAASGFTFNTYAMNWVRQASGKGLEWVGRIRSKYNNYATYYADSVKDRFTISRDDSKSTLYLQMNSLKTEDTAVYYCVRHGNFGNSYVSWFAYWGQGTLVTVSS VL: QAVVTQEPSLTVSPGGTVTLTCRSSTGAVTTSNYANWVQQKPGQAPRGLIGGTNKRAPWTPARFSGSLLGDKAALTLLGAQPEDEAEYFCALWYSNLWVFGGGTKLTVLG", "binds"]
]}
